# Test system: SK-MEL-2 melanoma
# protocol: NCI-60 one-dose screen, 48 h
# details: 10 µM unless noted
About 83,000 compounds went through this panel and 20% of them were active in at least one assay; those are over-represented in the sample as a whole. Active and inactive are the calls of the source. How the source made its calls: active means growth percent below 10; inactive means the rest.
Allowed answers: 1 for active, -1 for inactive

Cn1c(=O)c2c(nc(Cl)n2CCl)n(C)c1=O | -1

Ask | Assay result, entry `COc1cc(-c2n/c(=C\c3c(O)[nH]c4ccc(Cl)cc34)cc3c2=Nc2ccccc2-3)cc(OC)c1OC` — outcome?
Reply | -1

Ask | Let us now turn to `Cc1cc(NCCCCNc2ccnc3cc(Cl)ccc23)nc(Nc2ccc(C(=O)N3CCCC3)cc2)n1`
Reply | -1

Ask | Now the same for CC(C)(C)OC(=O)Nc1ccc2c(c1)C(NC(=O)Nc1cccc(C#N)c1)CC(C)(C)O2 (stereo not given)
Reply | -1

Ask | Can you check `O=C(Cc1ccc(F)c(F)c1)Nc1cc(C2(C(F)(F)F)CC2)nn1Cc1ccccc1` next?
Reply | 1

Ask | Item: `CN(C)c1ccc(/C=C/C(=O)c2cccc(Nc3nc(Nc4ccccc4)nc(Nc4ccccc4)n3)c2)cc1`
Reply | -1

###

# System: NCI-H226 lung
# protocol: NCI-60 one-dose screen, 48 h
# details: 10 µM unless noted
The panel holds about 83,000 compounds, 20% with a hit somewhere; the sample as a whole holds those more often. Calls of active or inactive are those of the source. How the source made its calls: active means growth percent below 10; inactive means the rest.
Select the correct class. Options are true (active), false (inactive) and nothing else.

The following compounds have reported results that may help.
COc1cccc(-c2nc3sccn3c2-c2ccnc(NCCNS(=O)(=O)c3ccc(C(F)(F)F)cc3)c2)c1 | false
Clc1cccc(Cl)c1C(Nc1nc2ccccc2s1)Nc1nc2ccccc2s1 | false
CCc1c2c(nc3ccc(OC(=O)OCc4ccc(B5OC(C)(C)C(C)(C)O5)cc4)cc13)-c1cc3c(c(=O)n1C2)COC(=O)[C@]3(O)CC | true

Now let's try a different one.
Ask | What did the test return for `COc1cccc(-c2nc3sccn3c2-c2ccnc(NCCNS(=O)(=O)c3cccc(F)c3)c2)c1` ?
Reply | false

###

# Test system: OVCAR-4 ovarian
# protocol: NCI-60 one-dose screen, 48 h (100 = growth as untreated, 0 = no growth, -100 = all killed)
# details: 10 µM unless noted
The panel holds about 83,000 compounds, 20% with a hit somewhere; the sample as a whole holds those more often. Active and inactive are the calls of the source. The calls were made as follows: active = growth percent below 10; inactive = the rest.
assay readout: growth

COc1ccc2c(c1)O/C(=C\c1cccc(OCC(=O)Nc3nc(C)c(C)s3)c1)C2=O | 67.8% (inactive)

Ask | Would you kindly share the measured growth for CC1(C)CC(=O)C2=C(C1)N(c1ccc(OC(F)(F)F)cc1)C(N)=C(C#N)C2c1ccc(Cl)cc1 (centres undefined) ?
Reply | 85% (inactive)

Ask | Another molecule to check: `N#Cc1c(N)nn(C(=O)c2ccc(NC(=O)c3ccccn3)cc2)c1-c1ccc(Cl)cc1`
Reply | -2.76% (active)

Ask | Try CS(=O)c1cccc(-c2ccc3nc(N)n(-c4ccc(C(F)(F)F)cc4)c(=O)c3c2)c1 (centres undefined) next.
Reply | 100% (inactive)

Ask | Now consider `COc1cc(/C=C/C(=O)N2CCN(C(=O)c3cc(OC)c(OC)c(OC)c3)CC2)ccc1OCCCN1C(=O)c2cccc3cccc(c23)C1=O` .
Reply | 77.9% (inactive)

Ask | Also need COc1cc(C2CC(c3cc(OC)c(OCCCOc4ccc(-n5c(/C=C/c6ccccc6)nc6ccccc6c5=O)cc4)c(OC)c3)=NO2)cc(OC)c1OC (centres undefined) , thanks.
Reply | 87% (inactive)

Ask | Item: `CCc1ccccc1NC(=O)/C(C#N)=C/c1ccc(OC)cc1`
Reply | 94.3% (inactive)

Ask | Next: CCC1(C2CCCC2)NC(=O)NC1=O (centres undefined)
Reply | 113% (inactive)

Ask | Field entry: `Cc1ccc(-c2cc(-c3cccnc3)[nH]c(=O)c2C#N)cc1`
Reply | 103% (inactive)

Ref: PubChem BioAssay (NCI)
